# Tested on: ATP;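 also: ATP exposure 15 min at 22 °C before imaging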
# test: switch fluorescence ratio, 500 uM ATP over buffer (Cy3 cluster intensity, sum of 5 cycles each) (fold (ratio)); higher = stronger signal-on switching upon ATP binding; sequences stand for … in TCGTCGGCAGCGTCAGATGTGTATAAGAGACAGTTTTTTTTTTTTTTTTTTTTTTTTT…TC
# protocol.conditions: aptamer strand: ATP DNA aptamer (quencher-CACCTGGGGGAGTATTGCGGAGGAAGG + anchor), 100 nM annealed; ATP concentration: 500 uM

{"sequence.input": "GCGTAAGCAG", "target.or.system": "ATP", "switch fluorescence ratio": 0.981}
{"sequence.input": "AAGAAGATCA", "target.or.system": "ATP", "switch fluorescence ratio": 0.975}
{"sequence.input": "TTTGCGACTG", "target.or.system": "ATP", "switch fluorescence ratio": 1.03}
{"sequence.input": "GGCCCGGAGC", "target.or.system": "ATP", "switch fluorescence ratio": 1.24}
{"sequence.input": "GTAGTTTTGT", "target.or.system": "ATP", "switch fluorescence ratio": 0.987}
{"sequence.input": "TAGGAGGTAC", "target.or.system": "ATP", "switch fluorescence ratio": 1.01}
{"sequence.input": "ATCATTCCTC", "target.or.system": "ATP", "switch fluorescence ratio": 1.57}
{"sequence.input": "ACTCATTCGG", "target.or.system": "ATP", "switch fluorescence ratio": 1.01}
{"sequence.input": "CGTGAAATGT", "target.or.system": "ATP", "switch fluorescence ratio": 0.986}
{"sequence.input": "CGTTTGTCGT", "target.or.system": "ATP", "switch fluorescence ratio": 1.04}
{"sequence.input": "TAGGTCGGGA", "target.or.system": "ATP", "switch fluorescence ratio": 0.976}
{"sequence.input": "ACTTGATGGG", "target.or.system": "ATP", "switch fluorescence ratio": 0.992}
{"sequence.input": "GTTATATTGA", "target.or.system": "ATP", "switch fluorescence ratio": 0.999}
{"sequence.input": "CGTATGGATA", "target.or.system": "ATP", "switch fluorescence ratio": 0.998}
{"sequence.input": "GAGGATGTCT", "target.or.system": "ATP", "switch fluorescence ratio": 0.99}
{"sequence.input": "ACGGACAGTT", "target.or.system": "ATP", "switch fluorescence ratio": 1.13}
{"sequence.input": "CCCCGGATGG", "target.or.system": "ATP", "switch fluorescence ratio": 1.26}
{"sequence.input": "TTATGCGTTT", "target.or.system": "ATP", "switch fluorescence ratio": 1.2}
{"sequence.input": "GGGAGCTTTT", "target.or.system": "ATP", "switch fluorescence ratio": 0.999}
{"sequence.input": "AAAATGTAAG", "target.or.system": "ATP", "switch fluorescence ratio": 1.01}
